Source of measurements: PubChem BioAssay (NCI)

- Test Protocol: NCI Yeast Anticancer Drug Screen. Data for the bub3 strain (AID 167)
- Measurement Context: S. cerevisiae bub3 mutant strain, at 50.0 µM, hits give high values
- Protocol: Growth inhibition of yeast strains with defined genetic alterations is measured as a screen for potential anti-cancer activity. Selected strains with alterations in DNA damage repair or cell cycle control were exposed to compounds and growth inhibition was measured relative to vehicle treated controls. The strain used in this assay is bub3
This is part of a sample that, as a whole, favours compounds with a hit. Of some 79,000 tested, about 15% had one in any assay.
Measure Name: growth inhibition (%)
Answers are plain numbers, in %.

Field: example entries. Status: answers known.
{"columns": ["Compound", "growth inhibition (%)"],
 "data": [
  ["CN=C1N[N+]2=CCCCC2S1 (configuration not stated)", 2.4],
  ["CCc1c(C)c(C)c(C)c(C)c1C(C)=O", 6.4],
  ["Cc1ccc(N(C)S(=O)(=O)c2ccc([N+](=O)[O-])cc2)cc1", 42.1],
  ["O=[N+]([O-])c1ccc(N/N=C2\\C=C(c3ccccc3)C(c3ccccc3)C2)c([N+](=O)[O-])c1 (configuration not stated)", 96.8],
  ["CCC(=O)OC1CCC(OC(=O)CC)CC1 (configuration not stated)", -6.05]
]}

List the reported growth inhibition of each compound below.
1. C=CCc1cc(OC)c2c(c1)C(OC)CC(c1ccc(OC)c(OC)c1)O2 (configuration not stated)
2. O=c1cc(Nc2ccccc2)c2ccccc2[nH]1
3. COc1cc(C(=O)C/C(CCCC(=O)Nc2ccccc2[N+](=O)[O-])=N/NC(=O)c2cc3ccccc3cc2O)ccc1O
4. NC(=O)C1C(=O)c2cccc3c2C1CCCC3 (configuration not stated)
5. CCOC(=O)SC1=NC(C)=CC(C)(C)S1
6. CSc1ncnc2c1ncn2CCC(=O)O
7. COc1cccc(/C=C2/Sc3sc(C(C)=O)c(C)[n+]3C2=O)c1O
8. CC1CCCc2c(CC3CC(=O)NC(=O)C3)nc(N)nc21 (configuration not stated)

-12.7
-15.3
1.4
-11
-3.7
-13.9
-4.55
-4.7

List the reported growth inhibition of each compound below.
1. Cc1ccc(S(=O)(=O)Nc2ccccc2)cc1
2. CCc1nc2c([nH]1)C(=O)c1ccccc1C2=O

3.8
18.7

List the reported growth inhibition of each compound below.
1. COc1ccc(CCCc2cc3c(cc2OC)OCO3)cc1
2. O=C(Nc1ccc(Cl)cc1[N+](=O)[O-])Oc1ccc(-c2ccccc2)cc1
3. O=C(O)C/C=C/CC(=O)O
4. NC(=O)c1nnsc1NC=O
5. Cn1nc(C(F)(F)C(F)(F)C(F)(F)F)nc1C(F)(F)C(F)(F)C(F)(F)F
6. CCCCNS(=O)(=O)c1ccc(C)cc1
7. CC/C(SC)=[N+](\C)[O-]
8. CCCCCCCCCCCCCCCC(O)S(=O)(=O)O (configuration not stated)

1. 35.6
2. 78.8
3. 15.4
4. -26.1
5. -2.15
6. -22
7. -20.4
8. -29.4

List the reported growth inhibition of each compound below.
1. O=C(c1ccccc1)C(CBr)C(Br)c1ccccc1 (configuration not stated)
2. O=C(CC(O)(CCc1ccccc1)c1ccccc1)N1CCC(O)(c2ccccc2)CC1 (configuration not stated)
3. CCN1N=Nc2ccccc2NC1=O
4. O=C(Nc1ccccc1CCl)Nc1ccccc1CCl (tested in a mixture with another compound)

[16.9, 97.8, -13.1, -4.1]
